Tested on: 786-0 renal
Test: NCI-60 one-dose screen, 48 h (100 = growth as untreated, 0 = no growth, -100 = all killed)
Details: 10 µM unless noted
The panel holds about 83,000 compounds, 20% with a hit somewhere; the sample as a whole holds those more often. Calls of active or inactive are those of the source. Rule for the calls: active = growth percent below 10; inactive = the rest.
Reported growth values for a set of molecules

{"Molecule": "Cc1ccc(-c2csc3nc(C)c(CCCl)c(=O)n23)cc1", "growth": "104% (inactive)"}
{"Molecule": "Cn1c(-c2nonc2NC(=O)c2ccc(F)cc2)nc2ccccc21", "growth": "98.6% (inactive)"}
{"Molecule": "CCC#CC[C@H]1C/C=C2/C(=O)C=C[C@@H]2C/C=C\\CCCC(=O)O1", "growth": "-37.9% (active)"}
{"Molecule": "COc1cccc(/C=C2\\SC(N3CCN(c4ccccn4)CC3)=NC2=O)c1", "growth": "108% (inactive)"}
{"Molecule": "CC(=O)Nc1ccc(S(=O)(=O)NC(CCC(=O)Nc2ccc(Cl)cc2)C(=O)O)cc1 (centres undefined)", "growth": "107% (inactive)"}
{"Molecule": "NC(C(=O)O)C(O)c1ccc(OCc2ccccc2)c(OCc2ccccc2)c1 (centres undefined)", "growth": "98.7% (inactive)"}
{"Molecule": "COc1ccc(/C=C\\c2cc(OC)c(OC)c(OC)c2)c(NS(=O)(=O)c2ccc(C(C)(C)C)cc2)c1O", "growth": "24.4% (inactive)"}
{"Molecule": "CC[C@]1(O)C[C@@H]2CN(Cc3c([nH]c4ccccc34)[C@@](C(=O)OC)(c3cc4c(cc3OC)N(C)[C@H]3[C@@](O)(C(=O)OC)[C@H](OC(C)=O)[C@]5(CC)[C@@H]6C[C@@H]6CN6CC[C@]43[C@@H]65)C2)C1", "growth": "21.4% (inactive)"}
{"Molecule": "COC(=O)c1ccc2nc(-c3cc4ccccc4n3C)n(CCCCOc3cc4c(cc3OC)C(=O)N3CCC[C@H]3C=N4)c2c1", "growth": "8.78% (active)"}
{"Molecule": "Cc1cc(-c2ccccc2)c(C)n1Cc1ccc(Cl)cc1", "growth": "47.8% (inactive)"}
{"Molecule": "CCCCCCCCCCCCCCCCC(Br)C(=O)O (centres undefined)", "growth": "111% (inactive)"}
{"Molecule": "COc1ccc(/C=C/c2cc(N3CCOCC3)c3cc(F)c(F)cc3n2)cc1OC", "growth": "40.8% (inactive)"}
{"Molecule": "COc1ccc(/C=C2\\Oc3cc(OCCN4CCCC4)ccc3C2=O)c(OC)c1", "growth": "88.2% (inactive)"}
{"Molecule": "O=c1[nH]c(CN2CCN(c3ccccc3F)CC2)nc2sc3c(c12)CCC3", "growth": "95.8% (inactive)"}
{"Molecule": "CSc1ccccc1C#C/C=C\\C#Cc1ccccc1N1CCCC1=O", "growth": "71.1% (inactive)"}
{"Molecule": "COc1cc(C(=O)CCCl)ccc1O", "growth": "106% (inactive)"}
{"Molecule": "Cc1ccccc1C(=O)c1ccccc1C(=O)O", "growth": "97.9% (inactive)"}
{"Molecule": "Cc1ccc2c(c1)C(C)Cc1c(N(C)C)ncnc1N2C (centres undefined)", "growth": "34.8% (inactive)"}
{"Molecule": "COc1cc(C(=O)OCCCCCCCCCCC[P+](c2ccccc2)(c2ccccc2)c2ccccc2)ccc1O", "growth": "5.62% (active)"}
{"Molecule": "CCCCCCCN(CCCCCCC)C(=N)c1ccc(OC)c2ccccc12", "growth": "-90.7% (active)"}
{"Molecule": "CCn1cc(C2NC(=O)c3cc(F)ccc3N2)c2cccc(Cl)c21 (centres undefined)", "growth": "42.3% (inactive)"}
{"Molecule": "O=C(Nc1cccc(C(F)(F)F)c1)Nc1ccc(OCc2nnc(-c3ccccc3)o2)c(F)c1", "growth": "60.4% (inactive)"}
{"Molecule": "C=CCOc1cccc(/C=C/C(=O)c2sc(Nc3cccnc3)nc2C)c1", "growth": "51.7% (inactive)"}
{"Molecule": "C=C1C(=O)O[C@H]2[C@H]1CC/C(Cn1cc(-c3ccccc3C(F)(F)F)nn1)=C\\CC[C@@]1(C)O[C@@H]21", "growth": "-81.2% (active)"}
{"Molecule": "Cc1ccc2nc(SCn3nnc4ccccc4c3=O)[nH]c2c1", "growth": "107% (inactive)"}
{"Molecule": "O=C(CC(O)c1ccncc1)c1ccccc1 (centres undefined)", "growth": "9.96% (active)"}
{"Molecule": "Cc1cc2c(C(C)C)c(O)c(O)c(C=NCCCCCCC(=O)O)c2c(O)c1-c1c(C)cc2c(C(C)C)c(O)c(O)c(C=NCCCCCCC(=O)O)c2c1O", "growth": "38.2% (inactive)"}
{"Molecule": "Clc1ccc(/C=C/c2nc(N3CCOCC3)c3nc(Cl)c(Cl)cc3n2)cc1", "growth": "92.2% (inactive)"}
{"Molecule": "CCN(CC)CCSc1c2ccc(Cl)cc2nc2ccc(OC)cc12", "growth": "67.6% (inactive)"}
{"Molecule": "Cc1cc(Nc2nc(-c3ccncc3)nc3ccccc23)n[nH]1", "growth": "48.2% (inactive)"}
{"Molecule": "CCn1cc(C(=O)O)c(=O)c2cc(F)c(N3CCN(S(=O)(=O)c4cccc5ccccc45)CC3)cc21", "growth": "24.3% (inactive)"}
{"Molecule": "CCc1cccc(C)c1NC(=O)c1sc2nc3c(cc2c1N)C(=O)CCC3", "growth": "38.7% (inactive)"}
{"Molecule": "COc1cc2c3c(c(=O)oc2cc1OS(=O)(=O)c1ccc(C(F)(F)F)cc1)CCCCC3", "growth": "72.2% (inactive)"}
{"Molecule": "CC1Cc2c(N(C)C)ncnc2N(C)c2ccc(Cl)cc21 (centres undefined)", "growth": "31.1% (inactive)"}
{"Molecule": "Cc1cc(C)c(S(=O)(=O)N2CCN(c3cc4c(cc3F)c(=O)c(C(=O)O)cn4C3CC3)CC2)c(C)c1", "growth": "75.6% (inactive)"}
{"Molecule": "O=S(=O)(NCCCNc1nccc(-c2c(-c3ccccc3)nc3sccn23)n1)c1ccc(F)cc1", "growth": "44.8% (inactive)"}
{"Molecule": "COC1=CC(c2ccc[nH]2)=N/C1=C\\c1[nH]c(C)c(CCCn2cc(CCCCCCCCC[C@@H]3Cc4cc(O)ccc4C4CC[C@]5(C)[C@@H](O)CC[C@H]5C43)nn2)c1C (some centres undefined)", "growth": "63.9% (inactive)"}
{"Molecule": "CCCCn1c(=O)c(C2CNC(=O)c3ccccc3N2)cc2ccccc21 (centres undefined)", "growth": "92.4% (inactive)"}
{"Molecule": "COc1cc(OC)cc(-c2n[nH]nc2-c2ccc3c(c2)OCO3)c1", "growth": "40% (inactive)"}
